- Target or system: T1, human KLRB1 protein extracellular domain (ECD) (human, UniProt Q12918 67-225)
- T1 construct: range 67-225; The ELISA and SPR text says only 'human KLRB1 ECD'; also called human KLRB1 ECD; CD161
- T1 sequence (looked up): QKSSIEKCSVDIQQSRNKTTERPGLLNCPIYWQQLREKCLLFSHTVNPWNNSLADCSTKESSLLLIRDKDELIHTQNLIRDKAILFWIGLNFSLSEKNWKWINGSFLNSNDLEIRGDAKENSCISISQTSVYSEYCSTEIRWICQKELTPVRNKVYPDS
- Experimental protocol: SPR, human KLRB1 ECD; format not stated
Result type: kon (M⁻¹ s⁻¹)
One number for each entry, in M⁻¹ s⁻¹.

{"columns": ["Binder", "kon (M⁻¹ s⁻¹)"],
 "data": [
  ["10A3D6C109V-chimeric (antibody, human IgG1, V domains shown, Chimeric mutated variant; the name hIgG1k indicates human IgG1 kappa constant regions; also called 10A3D6C109VhIgG1k) VH: EVQLQQSGPELVKPGASMKISCKASGYSFTGYTMNWVKQSHGKNLEWIGLINPNTGGTYYNQKFKDKATLTVDKSSSTAYMELLSLTSEDSAVYYCARLGDNYRGYFDVWGQGTTLTVSS VL: DIVMTQSHKFMSTSVGDRVNITCKASQDVGTAVVWYQQTPGQSPKVLIDWASIRHTGVPDRFTGSGSGTDFTLTISSVQSEDLADYFCQQYSTYLYTFGGGTKLEIK", "6.72e+06"],
  ["10A3D6C109Chum5.1 (antibody, V domains shown, Humanized variant of 10A3D6 made by CDR grafting) VH: QVQLVQSGAEVKKPGASVKVSCKASGYSFTGYTMNWVRQAPGQNLEWMGLINPNTGGTYYNQKFKDRVTLTVDTSISTAYMELSRLRSDDTVVYYCARLGDNYRGYFDCWGQGTLVTVSS VL: DIQLTQSPSFLSASVGDRVTITCKASQDVGTAVVWYQQKPGKAPKLLIYWASIRHTGVPSRFSGSGSGTEFTLTISSLQPEDFATYYCQQYSTYLYTFGGGTKLEIK", "1.92e+06"]
]}

[Q] Identify kon associated with the binder 10A3D6C109Chum1.5 (antibody, V domains shown, Humanized variant of 10A3D6 made by CDR grafting) VH: QVQLVQSGAEVKKPGASVKVSCKASGYSFTGYTMNWVRQAPGQGLEWMGLINPNTGGTYYNQKFKDRVTMTRDTSISTAYMELSRLRSDDTAVYYCARLGDNYRGYFDCWGQGTTVTVSS VL: EIVMTQSPATLSVSPGERATLSCKASQDVGTAVVWYQQKPGQAPRLLIDWASIRHTGIPARFSGSGSGTEFTLTISSLQSEDFAVYYCQQYSTYLYTFGGGTKVEIK
[A] 1.02e+06
